- Test target: High affinity choline transporter 1 (Homo sapiens)
- Sequence (Q9GZV3 whole entry): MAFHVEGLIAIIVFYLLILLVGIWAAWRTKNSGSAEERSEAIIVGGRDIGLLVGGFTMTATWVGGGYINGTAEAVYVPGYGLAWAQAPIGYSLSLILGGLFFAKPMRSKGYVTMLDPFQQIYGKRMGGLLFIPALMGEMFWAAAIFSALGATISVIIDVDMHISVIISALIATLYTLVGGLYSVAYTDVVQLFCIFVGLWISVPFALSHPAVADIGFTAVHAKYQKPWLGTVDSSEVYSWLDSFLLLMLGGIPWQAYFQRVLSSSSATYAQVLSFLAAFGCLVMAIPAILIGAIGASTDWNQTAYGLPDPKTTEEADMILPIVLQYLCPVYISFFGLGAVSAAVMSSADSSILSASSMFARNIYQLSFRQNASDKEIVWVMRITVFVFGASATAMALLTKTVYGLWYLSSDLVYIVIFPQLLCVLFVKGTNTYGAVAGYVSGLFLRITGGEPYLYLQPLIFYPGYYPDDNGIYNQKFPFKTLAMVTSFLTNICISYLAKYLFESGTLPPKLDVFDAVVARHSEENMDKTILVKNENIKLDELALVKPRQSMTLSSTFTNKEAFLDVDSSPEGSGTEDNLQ
- Test details: human choline transporter blockers, potency – cell-based, 5-point CRC, membrane potential dye, dose response (AID 504840)
- Type: functional
The source made the active and inactive calls.
Endpoint: IC50

[
  {
    "Molecule": "O=C1N/C(=N\\c2ccccc2Cl)S/C1=C\\c1cccc([N+](=O)[O-])c1O",
    "Recorded result": "12.6 µM (active)"
  },
  {
    "Molecule": "CC1=NOC(=O)/C1=C/c1ccc(O)c(Cl)c1",
    "Recorded result": "6.99 µM (active)"
  },
  {
    "Molecule": "CC(C)(C)NC(=O)NC(=O)CN1CCN(c2cccc(Cl)c2)CC1",
    "Recorded result": "8.64 µM (active)"
  },
  {
    "Molecule": "CN(C)CCCn1c(=O)n(CCc2ccccc2)c(=O)c2c3c(sc21)CCCCC3",
    "Recorded result": "12.6 µM (active)"
  },
  {
    "Molecule": "CC(NC(=O)c1ccc(OC2CCN(Cc3ccccn3)CC2)cc1)c1ccccc1 (stereo unspecified)",
    "Recorded result": "1.6 µM (active)"
  },
  {
    "Molecule": "COc1cccc(NC(=O)c2nc(S(C)(=O)=O)ncc2Cl)c1",
    "Recorded result": "14.5 µM (active)"
  }
]

###

- Test target: Carboxy-terminal domain RNA polymerase II polypeptide A small phosphatase 1 (Homo sapiens, UniProt Q9GZU7)
- Sequence (Q9GZU7 whole entry, the tested form may be a part): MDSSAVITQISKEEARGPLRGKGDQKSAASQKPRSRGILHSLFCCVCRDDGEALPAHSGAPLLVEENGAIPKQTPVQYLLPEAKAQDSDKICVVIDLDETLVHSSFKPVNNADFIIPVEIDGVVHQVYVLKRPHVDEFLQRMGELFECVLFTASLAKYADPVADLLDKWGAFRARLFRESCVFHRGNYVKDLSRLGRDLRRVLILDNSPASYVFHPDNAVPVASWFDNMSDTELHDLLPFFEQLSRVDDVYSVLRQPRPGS
- Test details: CTDSP1 inhibitors, concentration-response, biochemical, absorbance readout, ultra-high-throughput screen actives (AID 540297)
- Type: functional
Active and inactive are the calls of the source.

[
  {
    "Cpd smiles": "Fc1cc(F)cc(-c2c(-c3ccccc3)ncc3ccc(F)cc23)c1",
    "IC50": "8.88 µM (active)"
  },
  {
    "Cpd smiles": "CC(=O)Nc1ccc(NC(=O)CSc2nc(N)c(NC(=O)c3ccccc3F)c(=O)[nH]2)cc1",
    "IC50": "11.9 µM (active)"
  },
  {
    "Cpd smiles": "COc1ccc(/C=C(\\C#N)C(=O)Nc2ccc3[nH]c(O)nc3c2)cc1",
    "IC50": "3.26 µM (active)"
  },
  {
    "Cpd smiles": "CN(C)C(=O)COC(=O)c1ccc(S(=O)(=O)NCc2ccco2)cc1",
    "IC50": "6.65 µM (active)"
  },
  {
    "Cpd smiles": "CCc1cccc(NC(=O)CCS(=O)(=O)c2ccc(Br)cc2)c1",
    "IC50": "6.99 µM (active)"
  },
  {
    "Cpd smiles": "O=C(NNC(=O)c1ccc2ccccc2c1)c1ccc(Cl)cc1",
    "IC50": "> 80 µM (inactive)"
  },
  {
    "Cpd smiles": "COCCN(C(=O)c1cc(-c2ccco2)nc2ccccc12)c1c(N)n(Cc2ccccc2)c(=O)[nH]c1=O",
    "IC50": "6.59 µM (active)"
  },
  {
    "Cpd smiles": "O=C(Cn1cc(/C=N/NC(=O)c2cccc(C(F)(F)F)c2)c2ccccc21)Nc1ccc(F)cc1",
    "IC50": "4.23 µM (active)"
  },
  {
    "Cpd smiles": "Cc1ccc(NC(=O)CN2C(=O)N/C(=C\\c3cccn3-c3cccc(C(=O)O)c3)C2=O)cc1",
    "IC50": "2.2 µM (active)"
  }
]

###

- Test target: DNA dC->dU-editing enzyme APOBEC-3G (Homo sapiens, UniProt Q9HC16)
- Sequence (Q9HC16 whole entry): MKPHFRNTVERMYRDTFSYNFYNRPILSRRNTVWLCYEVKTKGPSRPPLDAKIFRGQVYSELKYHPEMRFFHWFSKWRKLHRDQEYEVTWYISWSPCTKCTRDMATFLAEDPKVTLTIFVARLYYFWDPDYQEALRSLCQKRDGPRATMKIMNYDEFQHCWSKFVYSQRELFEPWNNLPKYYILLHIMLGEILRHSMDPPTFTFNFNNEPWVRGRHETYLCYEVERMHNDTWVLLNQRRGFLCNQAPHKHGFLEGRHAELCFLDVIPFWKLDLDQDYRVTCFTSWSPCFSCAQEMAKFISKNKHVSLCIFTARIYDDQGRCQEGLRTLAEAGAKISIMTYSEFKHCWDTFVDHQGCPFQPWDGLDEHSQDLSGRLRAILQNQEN
- Test details: Dose Response confirmation of small molecule APOBEC3G DNA Deaminase Inhibitors via a fluorescence-based single-stranded DNA deaminase assay. [Related pubchem assays (depositor defined):AID493012, AID493028]
- Type: functional
Activity calls are given as the source filed them.
Endpoint: IC50

[
  {
    "Compound": "Sc1nc2cc(Cl)ccc2[nH]1",
    "Recorded result": "5.27 µM (active)"
  },
  {
    "Compound": "COC(=O)CSc1nnc(S)s1",
    "Recorded result": "17 µM (active)"
  },
  {
    "Compound": "CCSS(=O)(=O)c1cccc2cccnc12",
    "Recorded result": "12.7 µM (active)"
  },
  {
    "Compound": "CCOC(=O)c1sc(=S)n(C)c1NC(=O)c1ccc(OC)cc1",
    "Recorded result": "41.1 µM (active)"
  },
  {
    "Compound": "c1ccc2c(c1)OCC(c1nnc3sc(-c4ccc5c(c4)OCO5)nn13)O2 (stereo not given)",
    "Recorded result": "52.8 µM (active)"
  }
]

###

This listing pairs compounds with measured IC50.
- Test target: Sentrin-specific protease 6 (Homo sapiens);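 also: Luminescence-based dose-response confirmatory assay of SENP6 inhibition, following up an ultra-high-throughput screen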
- Sequence (Q9GZR1 whole entry): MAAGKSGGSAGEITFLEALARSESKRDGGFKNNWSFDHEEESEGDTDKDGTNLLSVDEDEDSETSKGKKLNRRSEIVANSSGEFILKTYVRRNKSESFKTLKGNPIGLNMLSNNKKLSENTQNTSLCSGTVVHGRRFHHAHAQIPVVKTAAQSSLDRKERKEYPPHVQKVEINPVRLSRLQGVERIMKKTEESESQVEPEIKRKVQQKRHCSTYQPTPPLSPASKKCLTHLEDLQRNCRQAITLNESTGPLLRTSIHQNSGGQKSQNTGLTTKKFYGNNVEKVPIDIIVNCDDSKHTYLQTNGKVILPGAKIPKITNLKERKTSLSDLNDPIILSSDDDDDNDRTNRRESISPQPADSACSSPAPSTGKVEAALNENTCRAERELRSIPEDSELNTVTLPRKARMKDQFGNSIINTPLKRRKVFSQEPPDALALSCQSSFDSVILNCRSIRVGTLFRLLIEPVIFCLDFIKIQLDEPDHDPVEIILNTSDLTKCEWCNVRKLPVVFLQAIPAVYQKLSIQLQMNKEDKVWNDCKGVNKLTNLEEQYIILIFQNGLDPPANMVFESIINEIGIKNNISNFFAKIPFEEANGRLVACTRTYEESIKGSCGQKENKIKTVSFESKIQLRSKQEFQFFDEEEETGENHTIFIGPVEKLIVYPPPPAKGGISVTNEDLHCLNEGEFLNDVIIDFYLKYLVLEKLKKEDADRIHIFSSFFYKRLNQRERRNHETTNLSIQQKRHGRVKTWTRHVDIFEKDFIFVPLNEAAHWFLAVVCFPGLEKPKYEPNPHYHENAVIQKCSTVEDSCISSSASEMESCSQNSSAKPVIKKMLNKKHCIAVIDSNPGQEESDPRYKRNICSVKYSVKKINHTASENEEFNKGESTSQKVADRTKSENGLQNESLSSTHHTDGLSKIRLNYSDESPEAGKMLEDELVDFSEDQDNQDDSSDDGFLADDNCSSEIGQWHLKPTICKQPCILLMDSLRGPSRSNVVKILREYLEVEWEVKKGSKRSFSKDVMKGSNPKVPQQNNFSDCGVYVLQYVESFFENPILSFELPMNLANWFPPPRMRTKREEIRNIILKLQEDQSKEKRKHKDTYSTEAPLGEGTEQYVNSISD
- Format: functional
Activity calls are given as the source filed them.

[
  {
    "Compound": "Cc1cc(C)c[n+](C2=C([N-]S(=O)(=O)c3cccs3)C(=O)c3ccccc3C2=O)c1",
    "IC50": "15.1 µM (active)"
  },
  {
    "Compound": "CCCCCc1ccc(-c2ccc(/C=C/C(=O)O)cc2)nc1",
    "IC50": "11.2 µM (active)"
  },
  {
    "Compound": "C=C(C)C(O)CC/C(C)=C/Cc1c(O)ccc(C(=O)/C=C/c2ccc(O)cc2)c1O (configuration not stated)",
    "IC50": "4.22 µM (active)"
  },
  {
    "Compound": "Cc1ccccc1NS(=O)(=O)c1cccc(C(=O)Nc2cccc(C(=O)O)c2)c1",
    "IC50": "23.3 µM (active)"
  },
  {
    "Compound": "O=C(OCC(=O)N1CCN(c2ccccc2)CC1)c1ccc([N+](=O)[O-])s1",
    "IC50": "6.71 µM (active)"
  },
  {
    "Compound": "COC(=O)c1ccccc1NC1=C/C(=N\\S(=O)(=O)c2cccs2)c2ccccc2C1=O",
    "IC50": "1.86 µM (active)"
  },
  {
    "Compound": "O=C(c1ccccc1)c1ccc(Cn2cc(-c3ccccc3)nn2)cc1",
    "IC50": "19.5 µM (active)"
  }
]

###

- Test target: Melanocortin receptor 4 (Homo sapiens, UniProt P32245)
- Sequence (P32245 whole entry): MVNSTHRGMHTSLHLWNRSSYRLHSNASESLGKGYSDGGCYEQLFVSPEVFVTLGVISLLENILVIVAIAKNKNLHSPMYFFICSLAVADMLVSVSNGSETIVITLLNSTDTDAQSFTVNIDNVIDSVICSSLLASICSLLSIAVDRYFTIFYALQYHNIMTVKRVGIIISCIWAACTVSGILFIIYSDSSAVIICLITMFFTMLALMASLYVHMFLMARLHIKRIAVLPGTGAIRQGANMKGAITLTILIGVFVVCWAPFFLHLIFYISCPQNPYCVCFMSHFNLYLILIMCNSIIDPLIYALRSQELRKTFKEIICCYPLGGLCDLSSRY
- Test details: inhibitors of MC4R cAMP signaling – cell-based, TR-FRET, biased antagonists, dose response (AID 602298);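 also: antagonist potency against agonist-stimulated cAMP production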
- Format: functional
Active and inactive are the calls of the source.

[
  {
    "Compound": "COC(=O)c1c(NC(=O)COC(=O)c2ccc(Cl)cc2[N+](=O)[O-])sc2c1CCCCC2",
    "Test target": "Melanocortin receptor 4 (Homo sapiens, UniProt P32245)",
    "IC50": "> 64.6 µM (inactive)"
  },
  {
    "Compound": "COc1ccc2sc(-c3ccc(S(C)(=O)=O)cc3)c(-c3ccc(C(N)=O)cc3)c2c1",
    "Test target": "Melanocortin receptor 4 (Homo sapiens, UniProt P32245)",
    "IC50": "11.5 µM (inactive)"
  },
  {
    "Compound": "C#CC(=O)N(c1ccc(OC)cc1OC)C(C(=O)NC1CCCC1)c1cccs1 (stereo unspecified)",
    "Test target": "Melanocortin receptor 4 (Homo sapiens, UniProt P32245)",
    "IC50": "> 64.6 µM (inactive)"
  },
  {
    "Compound": "CCCCCCCCCCC[N+](C)(C)CC/C=C1/c2ccccc2Sc2ccc(Cl)cc21",
    "Test target": "Melanocortin receptor 4 (Homo sapiens, UniProt P32245)",
    "IC50": "24.3 µM (inactive)"
  },
  {
    "Compound": "CCN(CC)S(=O)(=O)c1ccc(Cl)c(C(=O)OC2CC(C)OC2=O)c1 (stereo unspecified)",
    "Test target": "Melanocortin receptor 4 (Homo sapiens, UniProt P32245)",
    "IC50": "> 64.6 µM (inactive)"
  },
  {
    "Compound": "Cc1cc(O)c(C(C)C)cc1C1(c2cc(C(C)C)c(O)cc2C)OC(=O)c2ccccc21",
    "Test target": "Melanocortin receptor 4 (Homo sapiens, UniProt P32245)",
    "IC50": "> 64.6 µM (inactive)"
  }
]

###

- Test target: Cytochrome P450 2D6 (Homo sapiens);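 also: CYP2D6 member of a cytochrome P450 panel assay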
- Sequence (P10635 whole entry): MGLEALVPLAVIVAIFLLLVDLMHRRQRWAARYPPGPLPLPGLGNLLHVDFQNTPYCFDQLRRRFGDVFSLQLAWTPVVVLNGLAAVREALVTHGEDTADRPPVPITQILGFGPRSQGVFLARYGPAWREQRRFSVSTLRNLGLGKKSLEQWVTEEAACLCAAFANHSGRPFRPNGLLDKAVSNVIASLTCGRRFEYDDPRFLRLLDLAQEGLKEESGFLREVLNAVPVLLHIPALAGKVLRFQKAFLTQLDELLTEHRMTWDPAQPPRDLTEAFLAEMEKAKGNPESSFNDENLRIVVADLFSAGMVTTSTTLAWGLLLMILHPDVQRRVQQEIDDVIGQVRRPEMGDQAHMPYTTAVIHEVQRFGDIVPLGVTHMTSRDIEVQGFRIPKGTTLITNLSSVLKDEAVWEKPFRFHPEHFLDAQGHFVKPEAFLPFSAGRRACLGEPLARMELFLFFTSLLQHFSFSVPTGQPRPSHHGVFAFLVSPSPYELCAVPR

[
  {
    "Cpd smiles": "CNC(C)(C)Cc1ccccc1",
    "AC50": "10 µM (inconclusive)"
  },
  {
    "Cpd smiles": "COc1ccc(Oc2nccc(-c3ccc(F)cc3)c2C#N)cc1",
    "AC50": "0.00562 µM (inconclusive)"
  },
  {
    "Cpd smiles": "CN1CCN(c2ncc3nc(-c4ccccc4)c(=O)n(CCc4ccccc4)c3n2)CC1",
    "AC50": "39.8 µM (inconclusive)"
  },
  {
    "Cpd smiles": "Cc1onc(-c2ccccc2)c1C(=O)NCCc1c[nH]c2ccccc12",
    "AC50": "12.6 µM (inconclusive)"
  },
  {
    "Cpd smiles": "CCS(=O)(=O)c1ccc2oc(Nc3cc(C)cc(C)c3)nc2c1",
    "AC50": "25.1 µM (inconclusive)"
  },
  {
    "Cpd smiles": "O=C(NCCN1CCOCC1)c1csc2c1CCCCC2",
    "AC50": "17.8 µM (inconclusive)"
  },
  {
    "Cpd smiles": "Cc1ccccc1NS(=O)(=O)c1ccc2ncc(C(=O)NCCCN3CCOCC3)c(O)c2c1",
    "AC50": "20 µM (inconclusive)"
  },
  {
    "Cpd smiles": "Cn1cccc1C(=O)N1CCC2(CCCN(C(c3ccccc3)c3ccccc3)C2)CC1",
    "AC50": "10 µM (inconclusive)"
  },
  {
    "Cpd smiles": "Cc1cc(O)c(C(C)C)cc1C1(c2cc(C(C)C)c(O)cc2C)OC(=O)c2ccccc21",
    "AC50": "3.98 µM (inconclusive)"
  },
  {
    "Cpd smiles": "CN(C)C(=O)c1cn(N(C)c2ncc(C(F)(F)F)cc2Cl)c(=O)c2ccccc12",
    "AC50": "25.1 µM (inconclusive)"
  },
  {
    "Cpd smiles": "COc1ccc(C(=O)c2ccccc2)cc1Br",
    "AC50": "22.4 µM (inconclusive)"
  }
]
